Quick reference: switch fluorescence ratio of the listed items.
- Tested on: ATP;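 also: ATP exposure 15 min at 22 °C before imaging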
- ASSAY PROTOCOL: switch fluorescence ratio, 500 uM ATP over buffer (Cy3 cluster intensity, sum of 5 cycles each) (fold (ratio)); higher = stronger signal-on switching upon ATP binding; sequences stand for … in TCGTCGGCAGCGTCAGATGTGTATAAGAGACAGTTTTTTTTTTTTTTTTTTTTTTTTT…TC
- SETTINGS: aptamer strand: ATP DNA aptamer (quencher-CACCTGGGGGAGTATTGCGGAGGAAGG + anchor), 100 nM annealed; ATP concentration: 500 uM
READOUT LABEL: switch fluorescence ratio

In [3]: df
Out[3]:
    biopolymer_sequence  tested_target  result_value
 0           CATTTATAAG            ATP         0.977
 1           TTGAGGGTAA            ATP         0.993
 2           AGTTTATCTG            ATP          1.01
 3           CAGTTCTGGG            ATP         0.987
 4           CGGTATAACG            ATP         0.997
 5           AGTGTGTTGC            ATP          1.02
 6           CTGAGGTATG            ATP          1.02
 7           TAGCAGTGGG            ATP         0.973
 8           TCAACGTAGA            ATP          1.03
 9           TGGTTCTGAC            ATP          1.03
10           GGATGAATTG            ATP          1.01
11           ACAGGGGAAT            ATP          1.01
12           GAGTTTCGTG            ATP         0.965
13           CAGGACTTGT            ATP         0.969
14           ACGCCGCGTT            ATP          1.42
15           AAACGAAGGA            ATP          1.09
16           AAATGGAATG            ATP         0.983
17           TTTTTGTGGA            ATP          1.03
18           AGCTGAAGAC            ATP          1.25
19           TAAGATGTAT            ATP         0.968
20           ATGAGAAGGC            ATP         0.997
21           GTTATTTGGG            ATP         0.979
22           GCATGGGTAG            ATP         0.982
23           CAGGTATAAG            ATP          1.01
24           TCGTTTGGTT            ATP          1.04
25           AACATCGTTT            ATP          1.02
26           AGGTAAATTA            ATP         0.998
27           TTTTTAGTTC            ATP          0.98
28           TTTTTAATTT            ATP         0.993
29           GGGGAGGATT            ATP         0.986
30           CGCGGGGGTA            ATP         0.995
31           TTTTAGTACA            ATP             1
32           TGGTAGCAGG            ATP          1.24
33           TTGGAGTGGT            ATP          1.03
34           GGTTTGAGAG            ATP         0.989
35           TGGTGTGTTT            ATP         0.978
36           AGGGGGATCA            ATP          1.01
37           TTGAGAGTTG            ATP         0.984
38           TCGTTGATGC            ATP          1.08
39           TAATTTGTGG            ATP         0.995
40           CCGTTCAGAA            ATP          1.08
41           ATCGTGGGGG            ATP             1
42           GTAAGAAGGA            ATP          1.02
43           CGGTTCGGCG            ATP         0.987
44           ACAATCGTTT            ATP          1.01
45           TAGCTAGTAT            ATP          1.63
46           TGATGTTGTC            ATP         0.988
47           GCGGTTCGTA            ATP          0.97
48           TCTTGTAACT            ATP          1.01
49           ATGTACGTAG            ATP          1.03
50           TAAAAATGAC            ATP          1.07
51           ATTTTGCGGA            ATP         0.968
52           AAAAAGGGCC            ATP          1.01
53           CTGGGTTCCT            ATP          1.02
54           GTTTTACGTC            ATP         0.981
55           TTCCGGTTTG            ATP         0.999
56           CGTAGGTTTT            ATP             1
